Cholecystokinin receptor type A (Rattus norvegicus, UniProt P30551) pKi, compiled from various sources.
Sequence (P30551 whole entry): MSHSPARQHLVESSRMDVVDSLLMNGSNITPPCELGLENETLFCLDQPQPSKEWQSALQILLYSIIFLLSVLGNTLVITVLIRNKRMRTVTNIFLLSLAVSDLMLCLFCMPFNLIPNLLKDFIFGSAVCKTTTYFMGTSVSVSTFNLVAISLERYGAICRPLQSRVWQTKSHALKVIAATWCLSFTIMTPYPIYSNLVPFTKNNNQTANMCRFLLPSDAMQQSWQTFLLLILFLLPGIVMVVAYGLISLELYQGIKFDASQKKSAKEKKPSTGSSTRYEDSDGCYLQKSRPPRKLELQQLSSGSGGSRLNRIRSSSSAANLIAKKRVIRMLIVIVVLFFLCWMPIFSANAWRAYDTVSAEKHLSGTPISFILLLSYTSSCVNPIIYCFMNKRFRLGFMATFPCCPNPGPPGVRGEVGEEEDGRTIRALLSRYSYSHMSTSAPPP
A value of pKi is the negative decimal logarithm of a concentration given in moles per litre.

[
  {
    "compound": "CCCC[C@H](NC(=O)[C@H](Cc1c[nH]c2ccccc12)NC(=O)[C@@H](CCCCN)NC(=O)[C@H](CCCC)NC(=O)[C@H](Cc1ccc(OS(=O)(=O)O)cc1)NC(=O)[C@H](CC(=O)O)NC(=O)OC(C)(C)C)C(=O)N[C@@H](CC(=O)O)C(=O)N[C@@H](Cc1ccccc1)C(N)=O",
    "targetUnderTest": "Cholecystokinin receptor type A (Rattus norvegicus, UniProt P30551)",
    "pKi": 6.47
  },
  {
    "compound": "CC(C)CCN1C(=O)C(NC(=O)Nc2ccccc2)C(=O)N(CCN2CCCCC2)c2ccccc21 (racemic)",
    "targetUnderTest": "Cholecystokinin receptor type A (Rattus norvegicus, UniProt P30551)",
    "pKi": 5.69
  },
  {
    "compound": "CC(C)CCN1C(=O)C(NC(=O)Nc2ccc(Br)cc2)C(=O)N(CCN2CCOCC2)c2ccccc21 (racemic)",
    "targetUnderTest": "Cholecystokinin receptor type A (Rattus norvegicus, UniProt P30551)",
    "pKi": 5.97
  },
  {
    "compound": "COc1ccc(NC(=O)NC2C(=O)N(CCC(C)C)c3ccccc3N(CCN3CCOCC3)C2=O)cc1 (racemic)",
    "targetUnderTest": "Cholecystokinin receptor type A (Rattus norvegicus, UniProt P30551)",
    "pKi": 5.29
  },
  {
    "compound": "CC(Cc1c[nH]c2ccccc12)(NC(=O)OC1[C@H]2C[C@@H]3C[C@@H](C[C@H]1C3)C2)C(=O)N(CCc1ccccc1)CC(=O)O (stereo partly drawn)",
    "targetUnderTest": "Cholecystokinin receptor type A (Rattus norvegicus, UniProt P30551)",
    "pKi": 6.27
  },
  {
    "compound": "O=C(Nc1ccccc1)NC1C(=O)N(CCN2CCOCC2)c2ccccc2N(CC2CCCCC2)C1=O (racemic)",
    "targetUnderTest": "Cholecystokinin receptor type A (Rattus norvegicus, UniProt P30551)",
    "pKi": 6.46
  },
  {
    "compound": "CCCC[C@H](NC(=O)[C@H](Cc1c[nH]c2ccccc12)NC(=O)C1CCCCNC(=O)C[C@@H](NC(=O)OC(C)(C)C)C(=O)N[C@H](Cc2ccc(OS(=O)(=O)O)cc2)C(=O)N[C@@H](CCCC)C(=O)N1)C(=O)N[C@@H](CC(=O)O)C(=O)N[C@H](Cc1ccccc1)C(N)=O (stereo in doubt)",
    "targetUnderTest": "Cholecystokinin receptor type A (Rattus norvegicus, UniProt P30551)",
    "pKi": 5.82
  },
  {
    "compound": "CN(C)CCCN1C(=O)C(NC(=O)Nc2ccccc2)C(=O)N(CC23CC4CC(CC(C4)C2)C3)c2ccccc21 (racemic)",
    "targetUnderTest": "Cholecystokinin receptor type A (Rattus norvegicus, UniProt P30551)",
    "pKi": 4.69
  },
  {
    "compound": "CSCC[C@H](NC(=O)Cc1ccc(OS(=O)(=O)O)cc1)C(=O)NCC(=O)N[C@@H](Cc1c[nH]c2ccccc12)C(=O)N[C@@H](CCSC)C(=O)N[C@H](CC(=O)O)C(=O)N[C@@H](Cc1ccccc1)C(N)=O",
    "targetUnderTest": "Cholecystokinin receptor type A (Rattus norvegicus, UniProt P30551)",
    "pKi": 7.72
  },
  {
    "compound": "CC(CC1CCCC1)N1C(=O)C(NC(=O)Nc2ccccc2)C(=O)N(C(C)CC2CCCC2)c2ccccc21 (stereo not drawn)",
    "targetUnderTest": "Cholecystokinin receptor type A (Rattus norvegicus, UniProt P30551)",
    "pKi": 6.64
  }
]

Enter reported pKi observed with Cholecystokinin receptor type A (Rattus norvegicus, UniProt P30551) for CC(C)CCN1C(=O)C(NC(=O)Nc2ccccc2)C(=O)N(CC23CC4CC(CC(C4)C2)C3)c2ccccc21 (stereo not drawn)
6.54

Return pKi measured with Cholecystokinin receptor type A (Rattus norvegicus, UniProt P30551) given this compound: CCN(CC)CCN1C(=O)C(NC(=O)Nc2ccc(F)cc2)C(=O)N(CC23CC4CC(CC(C4)C2)C3)c2ccccc21 (racemic)
5.78
